# TEST_SYSTEM: T1, human PD-1 dimer (human PD-1-mFc or human PD-1-hFc) (human, UniProt Q15116 25-170)
# T1 construct: also called hPD-1-mFc; hPD1-hFc
# T1 sequence (Q15116 25-170 C93S): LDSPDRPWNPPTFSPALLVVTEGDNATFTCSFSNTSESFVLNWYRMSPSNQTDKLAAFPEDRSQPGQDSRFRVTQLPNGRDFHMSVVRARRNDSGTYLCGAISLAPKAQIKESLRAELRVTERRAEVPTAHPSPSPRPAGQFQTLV
# ASSAY_SUMMARY: SPR, mAb captured, 37C;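 also: Real-time Biacore biosensor, PD-1 dimer flowed over anti-PD-1 antibody surface, rate constants fitted to a 1:1 model, KD derived as kd/ka and t½ as ln2/(60·kd)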

| BINDER | kon |
| --- | --- |
| H2aM7780N (antibody, mouse IgG2a, V domains shown, Human variable regions, mouse IgG2a Fc (H2aM prefix); also called H2M7780N) VH: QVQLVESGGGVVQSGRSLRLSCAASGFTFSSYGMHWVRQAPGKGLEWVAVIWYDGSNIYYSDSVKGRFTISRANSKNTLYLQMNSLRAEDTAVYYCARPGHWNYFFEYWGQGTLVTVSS VL: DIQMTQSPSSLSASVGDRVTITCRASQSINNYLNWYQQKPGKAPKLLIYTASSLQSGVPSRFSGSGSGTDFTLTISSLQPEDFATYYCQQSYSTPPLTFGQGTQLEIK | 99400 M⁻¹ s⁻¹ |
| H2aM7791N (antibody, mouse IgG2a, V domains shown, Human variable regions, mouse IgG2a Fc; also called H2M7791N) VH: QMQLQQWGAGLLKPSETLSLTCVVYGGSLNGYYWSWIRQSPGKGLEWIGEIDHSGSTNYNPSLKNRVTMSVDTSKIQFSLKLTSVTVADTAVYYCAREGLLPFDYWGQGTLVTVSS VL: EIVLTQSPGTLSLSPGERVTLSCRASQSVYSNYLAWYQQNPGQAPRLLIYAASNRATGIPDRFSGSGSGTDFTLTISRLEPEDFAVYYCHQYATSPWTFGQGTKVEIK | 49800 M⁻¹ s⁻¹ |
| H4H7798N (antibody, human IgG4 S228P, kappa, V domains shown) VH: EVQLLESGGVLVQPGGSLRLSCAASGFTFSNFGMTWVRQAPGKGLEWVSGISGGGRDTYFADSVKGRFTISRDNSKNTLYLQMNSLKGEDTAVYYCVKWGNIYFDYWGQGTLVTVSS VL: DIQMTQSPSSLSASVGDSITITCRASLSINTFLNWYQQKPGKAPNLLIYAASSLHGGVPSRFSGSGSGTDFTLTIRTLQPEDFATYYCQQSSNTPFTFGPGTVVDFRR | 660000 M⁻¹ s⁻¹ |
| H2aM7795N (antibody, mouse IgG2a, V domains shown, Human variable regions, mouse IgG2a Fc; also called H2M7795N) VH: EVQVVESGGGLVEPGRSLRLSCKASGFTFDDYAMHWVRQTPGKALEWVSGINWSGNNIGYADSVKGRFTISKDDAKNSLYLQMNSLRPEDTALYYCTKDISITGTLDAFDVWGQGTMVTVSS VL: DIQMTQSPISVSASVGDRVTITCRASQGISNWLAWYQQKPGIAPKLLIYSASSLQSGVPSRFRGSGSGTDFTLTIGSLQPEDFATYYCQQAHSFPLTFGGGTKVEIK | 165000 M⁻¹ s⁻¹ |
| H1M7789N (antibody, mouse IgG1, V domains shown, Human variable regions, mouse IgG1 Fc) VH: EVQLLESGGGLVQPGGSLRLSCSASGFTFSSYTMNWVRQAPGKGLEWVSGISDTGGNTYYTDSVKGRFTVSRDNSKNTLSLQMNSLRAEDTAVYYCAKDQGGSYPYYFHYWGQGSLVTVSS VL: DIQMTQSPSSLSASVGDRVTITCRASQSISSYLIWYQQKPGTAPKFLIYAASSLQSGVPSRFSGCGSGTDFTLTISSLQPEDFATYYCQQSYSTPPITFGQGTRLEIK | 109000 M⁻¹ s⁻¹ |
